MEASURED_TARGET: mutant MGL (mut-MGLL 11-313 L179S L186S) (Homo sapiens, UniProt Q99685, L169S/L176S)
Construct: purified mutant MGL (mut-MGLL 11-313 L179S L186S)
Sequence (Q99685 1-303 L169S/L176S): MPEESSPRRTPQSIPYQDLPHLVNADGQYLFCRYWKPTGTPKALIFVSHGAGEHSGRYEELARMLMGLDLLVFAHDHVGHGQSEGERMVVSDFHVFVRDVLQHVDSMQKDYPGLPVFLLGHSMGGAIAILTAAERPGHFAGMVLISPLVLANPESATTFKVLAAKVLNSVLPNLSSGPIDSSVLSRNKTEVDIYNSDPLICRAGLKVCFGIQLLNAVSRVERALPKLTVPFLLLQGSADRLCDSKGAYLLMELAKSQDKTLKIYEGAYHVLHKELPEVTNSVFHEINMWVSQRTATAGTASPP
MEASUREMENT_PROTOCOL: MGL Enzyme Activity Assay, purified mutant MGL, 4MU-B substrate
COND: mutant MGL 5 nM, 4MU-B 10 μM, 37° C.; read-out: MGL mutant inh IC50
pIC50: −log10 of the molar value.
MEASURED_METRIC: pIC50

- COMPOUND: "O=C(NC1CN(C2CN(C(=O)c3cc4c(C(F)(F)F)cccc4s3)C2)C1)c1nccs1 [Cpd 8]"
  MEASURED_TARGET: "mutant MGL (mut-MGLL 11-313 L179S L186S) (Homo sapiens, UniProt Q99685, L169S/L176S)"
  pIC50: 7.92
- COMPOUND: "O=C(NC1CN(C2CN(C(=O)c3ccc4c(ccn4-c4ccc(C(F)(F)F)cc4)c3)C2)C1)c1nccs1 [Cpd 1]"
  MEASURED_TARGET: "mutant MGL (mut-MGLL 11-313 L179S L186S) (Homo sapiens, UniProt Q99685, L169S/L176S)"
  pIC50: 8.30
- COMPOUND: "O=C(NC1CN(C2CN(C(=O)c3ccc4c(ccn4-c4ccc(F)cc4)c3)C2)C1)c1cscn1 [Cpd 11]"
  MEASURED_TARGET: "mutant MGL (mut-MGLL 11-313 L179S L186S) (Homo sapiens, UniProt Q99685, L169S/L176S)"
  pIC50: 7.82
- COMPOUND: "O=C(c1ccc2nc(-c3cccc(C(F)(F)F)c3)oc2c1)N1CC(N2CC(N3Cc4ccccc4C3=O)C2)C1 [Cpd 78]"
  MEASURED_TARGET: "mutant MGL (mut-MGLL 11-313 L179S L186S) (Homo sapiens, UniProt Q99685, L169S/L176S)"
  pIC50: 7.77

(a) O=C(NC1CN(C2CN(C(=O)c3ccc(-c4ccc(C(F)(F)F)cc4)cc3)C2)C1)c1cscn1 [Cpd 14]
(b) O=C(c1sc2cc(-c3ccccc3)ccc2c1-c1ccccc1)N1CC(N2CC(N3Cc4ccccc4C3=O)C2)C1 [Cpd 74]
(c) O=C(c1sc2cc(-c3ccccc3)ccc2c1Cl)N1CC(N2CC(N3Cc4ccccc4C3=O)C2)C1 [Cpd 68]
Prompt line: Arrange these compounds by their pIC50, starting with the largest number. In plain terms: list the labels in the order you were asked to.
Response line: c, b, a
(c: 8.22, b: 7.92, a: 7.57)
